Could you please report measured composite z-score for the items listed next?
Measurement target: Streptavidin (Streptomyces avidinii)
Protocol: streptavidin binders on small-molecule microarray, primary screen, artefact control for SMM compound annotation, biophysical, 635/667 nm fluorescence (AID 1147);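 further: signal reflects streptavidin binding to arrayed compounds as a control protein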
Cond: streptavidin binding, higher = more signal

Q) For the compound CC(=O)NCCCC[C@@H]1NC(=O)[C@@H]2C[C@H](C(=O)NCCCCCCN(C)C)[C@H](c3ccc(O)cc3)N2C1=O , give its reported composite z-score.
A) 1.24

Q) For the compound COc1cc2c(cc1OC)CN(C(=O)[C@H]1[C@@H]3C(=O)O[C@@H](c4ccccc4)[C@@H](c4ccccc4)N3[C@@H](c3ccccc3OCCO)[C@]13C(=O)Nc1ccc(C#CC4(O)CCCCCC4)cc13)CC2 , give its reported composite z-score.
A) 0.899

Q) For the compound COCCOC(=O)N1C(=O)[C@@]2(c3cc(C#CC4=CCCCC4)ccc31)[C@H](C(=O)NC[C@H](O)c1ccccc1)[C@H]1C(=O)O[C@H](c3ccccc3)[C@H](c3ccccc3)N1[C@@H]2c1ccccc1OCCO , give its reported composite z-score.
A) 0.634

Q) For the compound C=CCC1=C[C@H]2[C@H]([C@@H]3C=C[C@]2(CC=C)C(=O)[C@]32CO2)[C@@]2(CO2)C1=O , give its reported composite z-score.
A) 0.843

Q) For the compound C=CCN1C(=O)[C@@]2(Cc3ccccc3)N=C(c3ccc(OCCCO)cc3)O[C@H]2c2ccccc21 , give its reported composite z-score.
A) 0.653

Q) For the compound COCCOC(=O)N1C(=O)[C@@]2(c3ccccc31)[C@H](C(=O)N1CCc3cc(OC)c(OC)cc3C1)[C@H]1C(=O)O[C@H](c3ccccc3)[C@H](c3ccccc3)N1[C@@H]2c1ccccc1OCCO , give its reported composite z-score.
A) 0.686

Q) For the compound O=C(CS)NCCCCCNC(=O)[C@H]1C[C@H]2C(=O)N[C@@H](Cc3ccccc3)C(=O)N2[C@H]1c1ccc(O)cc1 , give its reported composite z-score.
A) 0.0842

Q) For the compound COC(=O)Cn1c(C(=O)N2CCCC2)cc2c1C[C@H]1CN(C(=O)c3ccccc3)[C@@](Cc3ccc(OC)cc3)(C(=O)OC)[C@@H]21 , give its reported composite z-score.
A) 0.927

Q) For the compound COc1ccc(-c2ccccc2[C@@H]2N[C@H](C(=O)O)CC[C@H]2C)cc1 , give its reported composite z-score.
A) 0.376

Q) For the compound Cc1ccc(S[C@]2(C(=O)NCCCN(C)C)CC(=O)N(Cc3ccccc3)[C@@H]2c2ccc(CO)cc2I)cc1 , give its reported composite z-score.
A) -0.0112

Q) For the compound CN1CCC(CCCO)=CC1C1CC1 (centres undefined) , give its reported composite z-score.
A) -0.0672

Q) For the compound O=C1OCCC=C[C@H]2OC34C=CCN(Cc5ccccc5)C(=O)[C@H]3N(CCO)C(=O)[C@@H]4C12 (some centres undefined) , give its reported composite z-score.
A) -0.88

Q) For the compound COC(=O)[C@@]1(Cc2ccc(OC)cc2)[C@H]2c3cc(C(=O)N(C)C)n(CCc4ccc(OC)c(Br)c4)c3C[C@H]2CN1C(=O)c1ccccc1 , give its reported composite z-score.
A) 1.95

Q) For the compound C=CC[C@]1(C(=O)O)N=C(c2ccc(OCCCO)cc2)O[C@H]1c1ccccc1 , give its reported composite z-score.
A) 0.0596
